Target: UniProtKB Q07817
pIC50: −log10 of the molar value.
endpoint: pIC50

compound `O=C(c1ccccc1O)c1[nH]c(Cl)c(Cl)c1-n1c(C(=O)c2ccccc2O)cc(Cl)c1Cl` , pIC50 observed: < 4.10

###

Tested on: HEK-293T
Experiment: Cytotoxicity against HEK293T cells assessed as reduction in cell viability incubated for 48 hrs by CCK8 assay
Details: Homo sapiens
endpoint: IC50 (µM)
Report the value in µM with no unit label.

O=C(NCCNS(=O)(=O)c1ccc(-c2ccccc2Oc2ccc([N+](=O)[O-])c([N+](=O)[O-])c2)s1)Nc1ccc([N+](=O)[O-])cc1 16.6

Next compound, please.
IC50 reading for `O=S(=O)(NCCNC(=S)Nc1cc(C(F)(F)F)cc(C(F)(F)F)c1)c1ccc(-c2ccccc2OCc2ccccc2)s1` : 8.5

###

System: HEK-293T
Assay: Cytotoxicity against HEK293T cells assessed as reduction in cell viability incubated for 48 hrs by CCK8 assay
Conditions: Homo sapiens
pIC50: −log10 of the molar value.
endpoint: pIC50

Cc1cc(C)cc(NC(=O)NCCNS(=O)(=O)c2ccc(-c3ccccc3OCc3cccc(O)c3)s2)c1 < 4.70

For `O=C(NCCNS(=O)(=O)c1ccc(-c2ccccc2O[C@H]2CC[C@@H](O)CC2)s1)Nc1cc(C(F)(F)F)cc(C(F)(F)F)c1` the compound record lists pIC50 as 4.85

Record `COc1ccc(Oc2ccc(C(C)C)cc2-c2ccsc2S(=O)(=O)NCCNC(=O)Nc2cc(Cl)cc(Cl)c2)cc1OC` . Reported pIC50: 4.92

###

Target: Apoptosis regulator Bcl-2 (Homo sapiens)
Sequence (P10415 whole entry): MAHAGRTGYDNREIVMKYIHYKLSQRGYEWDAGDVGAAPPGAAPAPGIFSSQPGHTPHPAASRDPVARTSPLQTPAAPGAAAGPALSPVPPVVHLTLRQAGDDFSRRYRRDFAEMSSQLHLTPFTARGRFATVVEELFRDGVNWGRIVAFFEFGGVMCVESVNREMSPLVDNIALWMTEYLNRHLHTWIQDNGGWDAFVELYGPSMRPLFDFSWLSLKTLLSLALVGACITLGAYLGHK
Test: Binding affinity to full length human Bcl-2 expressed in Escherichia coli BL21 (DE3) at 100 uM preincubated for 30 mins followed by 5-FAM-QEDIIIINIARHLAQVGDSMD-RSIPPG tracer addition and measured after 20 mins by fluorescence polarization assay relative to control
Conditions: time 50.0 min
endpoint: inhibition (%)

COc1ccc(Oc2ccccc2-c2ccsc2S(=O)(=O)N2CCN(C(=O)Nc3cccc([N+](=O)[O-])c3)CC2)cc1OC 18

a: COc1ccc(Oc2ccccc2-c2ccsc2S(=O)(=O)N2CCN(C(=S)Nc3ccc([N+](=O)[O-])cc3)CC2)cc1OC
b: O=C(Nc1ccc([N+](=O)[O-])cc1)N1CCN(S(=O)(=O)c2sccc2-c2ccccc2Oc2ccc(O)c(O)c2)CC1
Input: Between a and b , whose recorded inhibition is greater? Answer by stating the label of the chosen item.
Output: b
(b: 33%, a: 16%)

###

Molecular target: Bcl-2-like protein 1 (Homo sapiens)
Sequence (Q07817 whole entry): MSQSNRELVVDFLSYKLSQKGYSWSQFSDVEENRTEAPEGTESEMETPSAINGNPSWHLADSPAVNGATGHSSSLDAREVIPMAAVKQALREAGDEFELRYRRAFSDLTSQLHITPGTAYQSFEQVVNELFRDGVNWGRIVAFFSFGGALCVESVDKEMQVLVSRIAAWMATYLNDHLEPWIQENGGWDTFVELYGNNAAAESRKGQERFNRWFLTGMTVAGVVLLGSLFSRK
Experiment: Binding affinity to full length human Bcl-xl expressed in Escherichia coli BL21 (DE3) at 100 uM preincubated for 30 mins followed by 5-FAM-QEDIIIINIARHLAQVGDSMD-RSIPPG tracer addition and measured after 20 mins by fluorescence polarization assay relative to control
Settings: time 50.0 min
endpoint: inhibition (%)

O=C(Nc1ccc([N+](=O)[O-])cc1)N1CCN(S(=O)(=O)c2sccc2-c2ccccc2Oc2ccc(O)c(O)c2)CC1 29

a: COc1ccc(Oc2ccccc2-c2ccsc2S(=O)(=O)N2CCN(C(=O)Nc3ccc([N+](=O)[O-])cc3)CC2)cc1OC
b: O=C(Nc1cccc([N+](=O)[O-])c1)N1CCN(S(=O)(=O)c2sccc2-c2ccccc2Oc2ccc(O)c(O)c2)CC1
Input: I'm curious whether a or b has the smaller inhibition number. Which is it? Give the label under which the chosen entry appears.
Output: a

a: COc1ccc(Oc2ccc([N+](=O)[O-])cc2-c2ccsc2S(=O)(=O)N2CCN(C(=S)Nc3ccc([N+](=O)[O-])cc3)CC2)cc1OC
b: O=S(=O)(c1sccc1-c1ccccc1Oc1ccc(O)c(O)c1)N1CCN(C(=S)Nc2cc(C(F)(F)F)cc(C(F)(F)F)c2)CC1
c: COc1ccc(Oc2ccccc2-c2ccsc2S(=O)(=O)N2CCN(C(=S)Nc3ccc([N+](=O)[O-])cc3)CC2)cc1OC
Input: Which order do these items take when sorted by rising inhibition? List them. Give me the labels in the order the question wants.
Output: b, c, a

###

Tested on: HEK-293T
Test: Cytotoxicity against HEK293T cells assessed as reduction in cell viability incubated for 48 hrs by CCK8 assay
Conditions: Homo sapiens
# key: entry, value: pIC50
Please report pIC50 as the negative decimal logarithm of the molar concentration, giving only the number.

Here are 3 molecules together with their reported answers.
O=S(=O)(NCCNC(=S)Nc1cc(C(F)(F)F)cc(C(F)(F)F)c1)c1ccc(-c2ccccc2Oc2ccc(O)c(O)c2)s1 4.91
COc1ccc(NC(=O)NCCNS(=O)(=O)c2ccc(-c3ccccc3Oc3ccc([N+](=O)[O-])c([N+](=O)[O-])c3)s2)cc1 4.73
O=C(NCCNS(=O)(=O)c1sccc1-c1ccccc1Oc1ccc(O)c(O)c1)Nc1cc(Cl)cc(Cl)c1 4.97

Here's the next entry for you.
Memo: `CC(C)c1ccc(Oc2ccc(O)c(O)c2)c(-c2ccsc2S(=O)(=O)NCCNC(=S)Nc2cc(C(F)(F)F)cc(C(F)(F)F)c2)c1` , reported pIC50: 4.74

###

Molecular target: Induced myeloid leukemia cell differentiation protein Mcl-1 (Homo sapiens, UniProt Q07820)
Sequence (Q07820 whole entry): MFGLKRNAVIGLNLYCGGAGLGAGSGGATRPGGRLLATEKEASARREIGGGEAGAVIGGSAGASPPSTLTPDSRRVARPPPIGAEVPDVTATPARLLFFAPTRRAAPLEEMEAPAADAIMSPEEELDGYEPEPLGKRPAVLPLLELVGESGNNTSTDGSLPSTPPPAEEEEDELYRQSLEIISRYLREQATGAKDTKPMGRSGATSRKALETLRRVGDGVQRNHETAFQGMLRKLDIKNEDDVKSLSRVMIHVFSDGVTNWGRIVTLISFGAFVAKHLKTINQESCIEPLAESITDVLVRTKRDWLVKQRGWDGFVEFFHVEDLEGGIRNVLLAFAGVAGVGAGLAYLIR
Assay: Binding affinity to full length human MCL1 expressed in Escherichia coli BL21 (DE3) assessed as inhibition constant preincubated for 30 mins followed by 5-FAM-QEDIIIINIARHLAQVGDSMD-RSIPPG tracer addition and measured after 20 mins by fluorescence polarization assay
endpoint: Ki (nM)

Would you please look over these solved cases?
CC(C)c1ccc(Oc2ccc(O)c(O)c2)c(-c2ccsc2S(=O)(=O)NCCNC(=O)Nc2cc(Cl)cc(Cl)c2)c1 360
O=C(NCCNS(=O)(=O)c1sccc1-c1ccccc1Oc1ccc(O)c(O)c1)Nc1cc(Cl)cc(Cl)c1 1400
O=C(NCCNS(=O)(=O)c1ccc(-c2ccccc2Oc2ccc(O)c(O)c2)s1)Nc1cc(Cl)cc(Cl)c1 940
O=S(=O)(NCCNC(=S)Nc1cc(C(F)(F)F)cc(C(F)(F)F)c1)c1ccc(-c2ccccc2Oc2ccc(O)c(O)c2)s1 370
Cc1ccc(-c2ccsc2S(=O)(=O)NCCNC(=S)Nc2cccc([N+](=O)[O-])c2)c(Oc2ccc(O)c(O)c2)c1 7500
O=S(=O)(NCCNC(=S)Nc1ccc(Cl)cc1)c1ccc(-c2ccccc2OCc2ccccc2)s1 4300
COc1ccc(NC(=O)NCCNS(=O)(=O)c2ccc(-c3ccccc3Oc3ccc([N+](=O)[O-])cc3)s2)cc1 4600
O=C(NCCNS(=O)(=O)c1sccc1-c1ccccc1Oc1ccc(O)c(O)c1)Nc1cc(C(F)(F)F)cc(C(F)(F)F)c1 2100
O=S(=O)(NCCNC(=S)Nc1cc(C(F)(F)F)cc(C(F)(F)F)c1)c1sccc1-c1ccccc1Oc1ccc(O)c(O)c1 840
CC(C)c1ccc(Oc2ccc(O)c(O)c2)c(-c2ccsc2S(=O)(=O)NCCNC(=O)Nc2cc(C(F)(F)F)cc(C(F)(F)F)c2)c1 360

I: O=C(NCCNS(=O)(=O)c1ccc(-c2ccccc2Oc2ccc([N+](=O)[O-])c([N+](=O)[O-])c2)s1)Nc1ccc(Cl)cc1
II: O=C(NCCNS(=O)(=O)c1cc(-c2ccccc2Oc2ccc(O)c(O)c2)cs1)Nc1cc(C(F)(F)F)cc(C(F)(F)F)c1
Input: Lab notebook, comparison: I versus II , higher Ki goes to which? Respond with the label that goes with your answer.
Output: I

1: Cc1ccc(-c2ccsc2S(=O)(=O)NCCNC(=S)Nc2ccc([N+](=O)[O-])cc2)c(Oc2ccc(O)c(O)c2)c1
2: Cc1ccc(-c2ccsc2S(=O)(=O)NCCNC(=O)Nc2cccc([N+](=O)[O-])c2)c(Oc2ccc(O)c(O)c2)c1
Input: Parameter metric = Ki. Return the lower-valued option from 1 and 2 . Could you answer with the label of the item you picked?
Output: 1
(1: 1500 nM, 2: 13000 nM)

###

Molecular target: Induced myeloid leukemia cell differentiation protein Mcl-1 (Homo sapiens)
Test: Binding affinity to full length human MCL1 expressed in Escherichia coli BL21 (DE3) assessed as inhibition constant preincubated for 30 mins followed by 5-FAM-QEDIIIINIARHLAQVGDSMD-RSIPPG tracer addition and measured after 20 mins by fluorescence polarization assay
endpoint: Ki (µM)

COc1cccc(NC(=S)NCCNS(=O)(=O)c2sccc2-c2ccc(C)cc2Oc2ccc(O)c(O)c2)c1 6

1: Cc1ccc(-c2ccsc2S(=O)(=O)NCCNC(=O)Nc2ccc([N+](=O)[O-])cc2)c(Oc2ccc(O)c(O)c2)c1
2: O=S(=O)(NCCNC(=S)Nc1cc(C(F)(F)F)cc(C(F)(F)F)c1)c1cc(-c2ccccc2Oc2ccc(O)c(O)c2)cs1
3: CC(C)c1ccc(Oc2ccc(O)c(O)c2)c(-c2ccsc2S(=O)(=O)NCCNC(=S)Nc2cc(C(F)(F)F)cc(C(F)(F)F)c2)c1
4: COc1cccc(NC(=S)NCCNS(=O)(=O)c2ccc(-c3ccccc3Oc3ccc([N+](=O)[O-])cc3)s2)c1
Input: Would you mind ranking these compounds by ascending Ki? Present the labels in the sequence the task asks for.
Output: 2, 3, 1, 4
(2: 0.32 µM, 3: 2.1 µM, 1: 7.1 µM, 4: 13 µM)

// data source = ChEMBL document CHEMBL5034015
